Quick list: MIC per entry.
Test system: Staphylococcus aureus (MSSA)
test conditions: 24 h
Starred links: 1 amine or outer side, 2 acyl side, 3 side chain; linkers in the order of their positions; H or OH if unused. Positions of bridges follow the written chain, without caps; N, C: chain ends. Non-standard residues stand in square brackets, D forms with d. Residues, ends and D or L forms follow the SMILES beside them. ξ: configuration not given here. *: point of attachment. ξAbu(βξ-NH2) = CC(N[*:3])C(N[*:1])C(=O)[*:2]; X20 = CC#CC(=O)NC(C)C(N[*:1])C(=O)[*:2]; Pentadecanoyl = CCCCCCCCCCCCCCC(=O)*; ξAsp(βξ-Me) = CC(C(=O)O)C(N)C(=O)O; Pip = O=C(O)[CH]1CCCCN1
Provide the reading as a plain figure in µg/mL.

Please review the following examples before continuing.
CCCCCCCCNC(=O)NC(CC(=O)O)C(=O)NC1C(=O)N2CCCCC2C(=O)NC(C(C)C(=O)O)C(=O)NC(CC(=O)O)C(=O)NCC(=O)NC(CC(=O)O)C(=O)NCC(=O)NC(C(C)N)C(=O)NC(C(C)C)C(=O)N2CCCC2C(=O)NC1C (stereo not shown) [Compound 252, CH3—(CH2)7—NH—C(═O)-Amphomycin]	32
CCCCCCCCCCCCCCC(=O)NC(CC(=O)O)C(=O)NC1C(=O)N2CCCCC2C(=O)NC(C(C)C(=O)O)C(=O)NC(CC(=O)O)C(=O)NCC(=O)NC(CC(=O)O)C(=O)NCC(=O)NC(C(C)NC(=O)CCNC(=O)[C@@H](N)C(C)C)C(=O)NC(C(C)C)C(=O)N2CCCC2C(=O)NC1C (stereo partly drawn) [Compound 174, C15-Amphomycin-9-(β-Ala)-Val]	2
CC#CC(=O)NC(C)C1NC(=O)CNC(=O)C(CC(=O)O)NC(=O)CNC(=O)C(CC(=O)O)NC(=O)C(C(C)C(=O)O)NC(=O)C2CCCCN2C(=O)C(NC(=O)C(CC(=O)O)NC(=O)CCCCCCCCCCCCCC)C(C)NC(=O)C2CCCN2C(=O)C(C(C)C)NC1=O (stereo not drawn) [Compound 227, C15-Amphomycin-9-(2-Butynyl)] (Pentadecanoyl-D[ξAbu(βξ-NH2)][Pip][ξAsp(βξ-Me)]DGDG[X20]VP; lactam 2-C; configuration not given here)	32

Moving on to the next molecule.
Query :: Return MIC for the following molecule: CCCCCCCCCCCCCCC(=O)NC(CC(=O)O)C(=O)NC1C(=O)N2CCCCC2C(=O)NC(C(C)C(=O)O)C(=O)NC(CC(=O)O)C(=O)NCC(=O)NC(CC(=O)O)C(=O)NCC(=O)NC(C(C)NC(=O)CNC(=O)[C@@H](N)Cc2ccccc2)C(=O)NC(C(C)C)C(=O)N2CCCC2C(=O)NC1C (stereo partly shown) [Compound 28, C15-Amphomycin-9-Gly-Phe]
Result :: 2

====

Test system: Staphylococcus aureus (MSSA)
test conditions: 24 h
Starred links: 1 amine or outer side, 2 acyl side, 3 side chain; linkers in the order of their positions; H or OH if unused. Positions of bridges follow the written chain, without caps; N, C: chain ends. Non-standard residues stand in square brackets, D forms with d. Residues, ends and D or L forms follow the SMILES beside them. ξ: configuration not given here. *: point of attachment. X45 = CCN(CC)CCC(=O)NC(C)C(N[*:1])C(=O)[*:2]; ξAbu(βξ-NH2) = CC(N[*:3])C(N[*:1])C(=O)[*:2]; X26 = COC(=O)CC(=O)NC(C)C(N[*:1])C(=O)[*:2]; Pentadecanoyl = CCCCCCCCCCCCCCC(=O)*; ξAsp(βξ-Me) = CC(C(=O)O)C(N)C(=O)O; NHtetradecyl = CCCCCCCCCCCCCCN*; ξAbu(3ξ-NH2) = CC(N)C(N)C(=O)O; Pip = O=C(O)[CH]1CCCCN1; CO = O=C([*:1])[*:2]
measured metric: MIC (µg/mL)
Provide the reading as a plain figure in µg/mL.

Please review the following examples before continuing.
CCCCCCCCCCCCCCC(=O)NC(CC(=O)O)C(=O)NC1C(=O)N2CCCCC2C(=O)NC(C(C)C(=O)O)C(=O)NC(CC(=O)O)C(=O)NCC(=O)NC(CC(=O)O)C(=O)NCC(=O)NC(C(C)NC(=O)CCN(CC)CC)C(=O)NC(C(C)C)C(=O)N2CCCC2C(=O)NC1C (stereo not drawn) [Compound 246, C15-Amphomycin-9-(N,N-Diethyl-β-Ala)] (Pentadecanoyl-D[ξAbu(βξ-NH2)][Pip][ξAsp(βξ-Me)]DGDG[X45]VP; lactam 2-C; configuration not given here)	2
CCCCCCCCCCCCCCNC(=O)NCC(=O)NC(CC(=O)O)C(=O)NC1C(=O)N2CCCCC2C(=O)NC(C(C)C(=O)O)C(=O)NC(CC(=O)O)C(=O)NCC(=O)NC(CC(=O)O)C(=O)NCC(=O)NC(C(C)N)C(=O)NC(C(C)C)C(=O)N2CCCC2C(=O)NC1C (stereo not drawn) [Compound 307, CH3—(CH2)13—NH—C(═O)-Gly-Amphomycin] ({NHtetradecyl-CO}-GD[ξAbu(βξ-NH2)][Pip][ξAsp(βξ-Me)]DGDG[ξAbu(3ξ-NH2)]VP; lactam 3-C; configuration not given here)	0.5

Moving on to the next molecule.
Query :: Output reported MIC of the molecule CCCCCCCCCCCCCCC(=O)NC(CC(=O)O)C(=O)NC1C(=O)N2CCCCC2C(=O)NC(C(C)C(=O)O)C(=O)NC(CC(=O)O)C(=O)NCC(=O)NC(CC(=O)O)C(=O)NCC(=O)NC(C(C)NC(=O)CC(=O)OC)C(=O)NC(C(C)C)C(=O)N2CCCC2C(=O)NC1C (stereo not drawn) [Compound 231] (Pentadecanoyl-D[ξAbu(βξ-NH2)][Pip][ξAsp(βξ-Me)]DGDG[X26]VP; lactam 2-C; configuration not given here) on Staphylococcus aureus (MSSA).
Result :: 8
